Data origin, for the record: a melting point compilation (Tetko et al.; mined from patent text by program, amines drawn as free bases though some values may be those of a salt)

>  <Compound>
Cn1c(COc2ccc(CC3SC(=O)NC3=O)cc2)nc2ccc(Oc3ccc(NC(=S)NC4CCCCC4)cc3)cc21 (stereo not given)

>  <melting point>
173 to 174 °C

$$$$
>  <Compound>
CC(=O)c1cc(S(N)(=O)=O)ccc1O

>  <melting point>
197 to 199 °C

$$$$
>  <Compound>
C=CS(=O)CCNC(=O)NC(=O)CCCl (stereo not given)

>  <melting point>
113 to 135 °C

$$$$
>  <Compound>
OC(CN1CCC(c2c[nH]c3ccccc23)CC1)C1COc2ccccc2O1 (stereo not given)

>  <melting point>
145 °C

$$$$
>  <Compound>
CCOC(=O)CCC1CCN(C(=O)[C@H](C)NC(=O)c2ccc(C(O)=NN)cc2)CC1

>  <melting point>
194 to 195 °C

$$$$
>  <Compound>
CC(C)c1cc(C(C)(C)CCP(=O)(O)O)cc(C(C)C)c1O

>  <melting point>
179 to 182 °C

$$$$
>  <Compound>
CCOC(=O)COc1c(C)cc(C(O)(C(F)(F)F)C(F)(F)F)cc1C

>  <melting point>
99 to 101 °C

$$$$
>  <Compound>
COc1cccc(OC)c1N(COCC(C)C)C(=O)CCl

>  <melting point>
107 to 110 °C

$$$$
>  <Compound>
O=C1CCC(N2Cc3c(CNC(=O)Nc4cccc(Cl)c4)cccc3C2=O)C(=O)N1 (stereo not given)

>  <melting point>
250 to 252 °C

$$$$
>  <Compound>
CCCCCCCNC(=O)Nc1ccc(NC(C)=O)cc1C(=O)NC1CCN(C(c2ccccc2)c2ccccc2)CC1

>  <melting point>
113 to 115 °C

$$$$
